Data origin, for the record: patent US10144746B2

# test_target: Human plasma kallikrein (Homo sapiens (Human))
# Sequence (P03952 391-638): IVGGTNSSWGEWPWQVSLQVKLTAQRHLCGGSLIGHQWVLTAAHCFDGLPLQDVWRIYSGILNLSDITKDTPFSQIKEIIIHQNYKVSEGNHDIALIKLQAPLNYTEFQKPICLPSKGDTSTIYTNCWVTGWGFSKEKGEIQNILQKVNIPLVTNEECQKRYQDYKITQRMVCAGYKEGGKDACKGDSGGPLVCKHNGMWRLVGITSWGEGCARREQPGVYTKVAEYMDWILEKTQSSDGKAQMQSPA
# Sequence (P03952 20-390 partner): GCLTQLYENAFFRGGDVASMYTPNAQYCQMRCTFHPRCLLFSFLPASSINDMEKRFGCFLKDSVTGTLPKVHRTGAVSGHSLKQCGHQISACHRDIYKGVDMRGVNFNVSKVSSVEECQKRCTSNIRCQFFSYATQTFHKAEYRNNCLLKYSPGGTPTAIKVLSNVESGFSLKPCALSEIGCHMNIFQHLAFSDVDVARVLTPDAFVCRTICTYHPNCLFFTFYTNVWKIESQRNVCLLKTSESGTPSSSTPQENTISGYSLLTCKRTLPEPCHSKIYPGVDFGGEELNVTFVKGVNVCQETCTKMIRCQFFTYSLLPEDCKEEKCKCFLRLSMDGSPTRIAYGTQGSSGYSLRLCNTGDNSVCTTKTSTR
# assay_info: In vitro plasma kallikrein inhibition assay (chromogenic substrate D-Pro-Phe-Arg-pNa, absorbance at 405 nm, IC50 determination)
# Format: biochemical
# experimental_context: read-out: KLKB1 pIC50 (converted)
observed_property: log10 of IC50 (log10 of the value in nM)
Response schema: value (number) is log10 of IC50 in units of nM.

Q: Fill in the recorded log10 of IC50 for this compound, with Human plasma kallikrein (Homo sapiens (Human)) as test system: Cc1cc(N)nc(C)c1CNC(=O)c1ccc2c(c1)[C@@H]1O[C@H]2c2ccc(N(c3cccc(F)c3)C(C)C)cc21 (single isomer, unassigned)
Ans: 1.97

Q: Fill in the recorded log10 of IC50 for this compound, with Human plasma kallikrein (Homo sapiens (Human)) as test system: N=C(N)c1cc(F)c(CNC(=O)c2ccc3c(c2)[C@@H]2O[C@H]3c3ccc(-c4nccs4)cc32)c(F)c1 (single isomer, unassigned)
Ans: 0.30

Q: Fill in the recorded log10 of IC50 for this compound, with Human plasma kallikrein (Homo sapiens (Human)) as test system: COc1ncccc1-c1ccc2c(c1)[C@H]1O[C@@H]2c2ccc(C(=O)NCc3c(C)cc(N)nc3C)cc21 (single isomer, unassigned)
Ans: 2.83

Q: Fill in the recorded log10 of IC50 for this compound, with Human plasma kallikrein (Homo sapiens (Human)) as test system: Cc1cc(N)nc(C)c1CNC(=O)c1ccc2c(c1)C1OC2c2ccc(-c3c(F)cc(F)cc3Cl)cc21 (racemic)
Ans: 2.17

Q: Fill in the recorded log10 of IC50 for this compound, with Human plasma kallikrein (Homo sapiens (Human)) as test system: Cc1cc(N)nc(C)c1CNC(=O)c1ccc2c(c1)[C@@H]1O[C@H]2c2ccc(N(c3cccc(F)c3)S(C)(=O)=O)cc21 (single isomer, unassigned)
Ans: 2.27

Q: Fill in the recorded log10 of IC50 for this compound, with Human plasma kallikrein (Homo sapiens (Human)) as test system: COC(=O)c1cc2c(cc1C(=O)OC)C1OC2c2ccc(C(=O)NCc3c(C)cc(N)nc3C)cc21 (racemic)
Ans: 3.39

Q: Fill in the recorded log10 of IC50 for this compound, with Human plasma kallikrein (Homo sapiens (Human)) as test system: Cc1cc(N)nc(C)c1CNC(=O)c1ccc2c(c1)[C@@H]1O[C@H]2c2ccc(C(=O)N(C)c3ccc(F)cc3)cc21 (single isomer, unassigned)
Ans: 3.67

Q: Fill in the recorded log10 of IC50 for this compound, with Human plasma kallikrein (Homo sapiens (Human)) as test system: Cc1ccc(-c2ccc3c(c2)C2OC3c3ccc(C(=O)NCc4c(C)cc(N)nc4C)cc32)c(F)c1F (racemic)
Ans: 1.81

Q: Fill in the recorded log10 of IC50 for this compound, with Human plasma kallikrein (Homo sapiens (Human)) as test system: N=C(N)c1ccc(CNC(=O)c2ccc3c(c2)[C@@H]2O[C@H]3c3ccc(-c4ccc(F)cc4F)cc32)cn1 (single isomer, unassigned)
Ans: 0.70

Q: Fill in the recorded log10 of IC50 for this compound, with Human plasma kallikrein (Homo sapiens (Human)) as test system: Cc1cc(N)nc(C)c1CNC(=O)c1ccc2c(c1)[C@@H]1O[C@H]2c2ccc(-c3cccnc3C)cc21 (single isomer, unassigned)
Ans: 1.85

Q: Fill in the recorded log10 of IC50 for this compound, with Human plasma kallikrein (Homo sapiens (Human)) as test system: N=C(N)c1ccc(CNC(=O)c2ccc3c(c2)[C@@H]2O[C@H]3c3ccc(-c4ccccc4F)cc32)cc1 (single isomer, unassigned)
Ans: 0.24

Q: Fill in the recorded log10 of IC50 for this compound, with Human plasma kallikrein (Homo sapiens (Human)) as test system: Cc1cc(N)nc(C)c1CNC(=O)c1ccc2c(c1)C1OC2c2cc(C#N)c(C#N)cc21 (racemic)
Ans: 2.93

Q: Fill in the recorded log10 of IC50 for this compound, with Human plasma kallikrein (Homo sapiens (Human)) as test system: Cc1cc(N)nc(C)c1CNC(=O)c1ccc2c(c1)C1OC2c2ccc(-n3ccc(=O)cc3)cc21 (racemic)
Ans: 3.77

Q: Fill in the recorded log10 of IC50 for this compound, with Human plasma kallikrein (Homo sapiens (Human)) as test system: CC12OC(C)(c3cc(C(=O)NCc4ccc(C(=N)N)cc4)ccc31)c1cc(-c3ccc(F)cc3)ccc12 (racemic)
Ans: 2.63

Q: Fill in the recorded log10 of IC50 for this compound, with Human plasma kallikrein (Homo sapiens (Human)) as test system: Cc1c(CNC(=O)c2ccc3c(c2)[C@@H]2O[C@H]3c3ccc(-c4ccccc4F)cc32)cnc(N)c1C (single isomer, unassigned)
Ans: 3.44

Q: Fill in the recorded log10 of IC50 for this compound, with Human plasma kallikrein (Homo sapiens (Human)) as test system: Cc1ccc(-c2ccc3c(c2)[C@H]2O[C@@H]3c3ccc(C(=O)NCc4ccc(C(=N)N)cc4)cc32)o1 (single isomer, unassigned)
Ans: 1.53

Q: Fill in the recorded log10 of IC50 for this compound, with Human plasma kallikrein (Homo sapiens (Human)) as test system: N=C(N)c1cc(F)c(CNC(=O)c2ccc3c(c2)[C@@H]2O[C@H]3c3ccc(-c4ccc(F)cc4F)cc32)c(F)c1 (single isomer, unassigned)
Ans: -0.12

Q: Fill in the recorded log10 of IC50 for this compound, with Human plasma kallikrein (Homo sapiens (Human)) as test system: N=C(N)c1ccc(CNC(=O)c2ccc3c(c2)[C@@H]2O[C@H]3c3ccc(C4CC4)cc32)nc1 (single isomer, unassigned)
Ans: 2.63

Q: Fill in the recorded log10 of IC50 for this compound, with Human plasma kallikrein (Homo sapiens (Human)) as test system: Cc1cc2c(c(C)c1CNC(=O)c1ccc3c(c1)C1OC3c3ccc(Cn4cccn4)cc31)CNC2 (racemic)
Ans: 3.11

Q: Fill in the recorded log10 of IC50 for this compound, with Human plasma kallikrein (Homo sapiens (Human)) as test system: O=C(NCc1ccc(-c2noc(=O)[nH]2)cc1)c1ccc2c(c1)[C@@H]1O[C@H]2c2ccc(-c3ccc(F)cc3F)cc21 (single isomer, unassigned)
Ans: 5.00

Q: Fill in the recorded log10 of IC50 for this compound, with Human plasma kallikrein (Homo sapiens (Human)) as test system: Cc1ccc(-c2ccc3c(c2)C2OC3c3ccc(C(=O)NCc4c(C)cc(N)nc4C)cc32)c(C#N)n1 (racemic)
Ans: 1.36

Q: Fill in the recorded log10 of IC50 for this compound, with Human plasma kallikrein (Homo sapiens (Human)) as test system: Cc1cc(N)nc(C)c1CNC(=O)c1ccc2c(c1)C1OC2c2ccc(-c3cccc(S(C)(=O)=O)c3)cc21 (racemic)
Ans: 2.97

Q: Fill in the recorded log10 of IC50 for this compound, with Human plasma kallikrein (Homo sapiens (Human)) as test system: N=C(N)c1ccc(CNC(=O)c2ccc3c(c2)[C@@H]2O[C@H]3c3cc(C4CC4)c(C4CC4)cc32)cc1 (single isomer, unassigned)
Ans: 0.00

Q: Fill in the recorded log10 of IC50 for this compound, with Human plasma kallikrein (Homo sapiens (Human)) as test system: CCc1ccc2c(c1)[C@H]1O[C@@H]2c2ccc(C(=O)NCc3ccc(C(=N)N)cc3)cc21 (single isomer, unassigned)
Ans: 0.85
